Target entity: Dual specificity protein kinase CLK1 (Homo sapiens, UniProt P49759)
Sequence (P49759 whole entry): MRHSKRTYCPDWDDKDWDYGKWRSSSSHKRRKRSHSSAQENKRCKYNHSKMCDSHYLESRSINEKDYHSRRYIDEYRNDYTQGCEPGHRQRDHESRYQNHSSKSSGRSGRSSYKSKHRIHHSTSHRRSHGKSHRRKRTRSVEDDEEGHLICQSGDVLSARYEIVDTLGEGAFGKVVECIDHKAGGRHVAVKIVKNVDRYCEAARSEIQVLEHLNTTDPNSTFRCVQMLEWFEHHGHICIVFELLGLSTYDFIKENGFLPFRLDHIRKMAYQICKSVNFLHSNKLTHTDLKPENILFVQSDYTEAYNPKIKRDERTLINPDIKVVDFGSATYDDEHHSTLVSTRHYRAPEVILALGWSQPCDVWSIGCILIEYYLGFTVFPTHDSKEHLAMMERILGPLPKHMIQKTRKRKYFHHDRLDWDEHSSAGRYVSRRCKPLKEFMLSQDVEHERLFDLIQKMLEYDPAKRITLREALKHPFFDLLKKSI
pIC50: −log10 of the molar value.
Measured quantity: pIC50

> print(dat)
                  compound.structure.string  recorded.result
1  CC(C)C[C@H](CO)NC1=N/C(=C\c2ccc3ncsc3c2)C(=O)N1             7.72

P. CCOC[C@@H](CC(C)C)NC1=N/C(=C\c2ccc3ncsc3c2)C(=O)N1
Q. O=C1NC(NC23CC4CC(CC(C4)C2)C3)=N/C1=C\c1ccc2c(c1)CCO2
R. O=C1NC(NC23CC4CC(CC(C4)C2)C3)=N/C1=C\c1ccc2[nH]ncc2c1
Write the entries in order, lowest recorded pIC50 first. Sort the labels as requested; that list is your answer. Q, P, R
(Q: 6.99, P: 7.89, R: 8.30)

Source of measurements: ChEMBL document CHEMBL5360622
